- Tested on: MOLT-4 leukemia
- assayComment: NCI tumour cell line growth inhibition, 48 h
Task for the reader: assign each of the following molecules its reported log10(TGI).
Reminder: these figures are log10 of reported TGI, in µM before transformation.

Task: I am curious: what log10(TGI) value has been reported for COc1cc(-c2oc3c(OC)c(OC)cc(O)c3c(=O)c2OC)ccc1O ?
Output: 1.50

Task: I am curious: what log10(TGI) value has been reported for Cc1ccc(C(=O)CC(Cl)=C(Cl)Cl)cc1 ?
Output: 1.67

Task: I am curious: what log10(TGI) value has been reported for O=C(O)c1c(-c2c3ccc(=O)cc-3oc3cc(O)ccc23)cc2ccccc2c1-c1ccccc1 ?
Output: 0.92

Task: I am curious: what log10(TGI) value has been reported for Nc1nc2ccc([C@@H]3Nc4ccc5[nH]ncc5c4[C@H]4[C@H]5CCC(C5)[C@H]43)cc2s1 ?
Output: 0.48

Task: I am curious: what log10(TGI) value has been reported for COc1cccc(/C=C/C(=O)c2ccc(Cl)cc2Cl)c1OC ?
Output: 1.09

Task: I am curious: what log10(TGI) value has been reported for N#CC1C(=N)Cc2ccccc2-c2ccccc21 (configuration not stated) ?
Output: 1.64

Task: I am curious: what log10(TGI) value has been reported for C#CC(O)/C=C/CCCCCCC#CC/C=C\CC#CCCCCCC/C=C/C(O)C#C (configuration not stated) ?
Output: -0.43

Task: I am curious: what log10(TGI) value has been reported for COC(=O)c1ccccc1NC(=O)C(=O)CC(=O)c1ccccc1NC1=CC(=O)C(=O)c2ccccc21 ?
Output: 1.71

Task: I am curious: what log10(TGI) value has been reported for COC(=O)NCCc1[nH]nc2c1C(=O)C=C(OC)C2=O ?
Output: 1.67

Task: I am curious: what log10(TGI) value has been reported for C/C(Cl)=N\OC(=O)Nc1ccccc1C(F)(F)F ?
Output: 1.68

Task: I am curious: what log10(TGI) value has been reported for CC[C@@]1(O)C(=O)OCc2c1cc1n(c2=O)Cc2cc3cc(OC)ccc3nc2-1 ?
Output: -1.54

Task: I am curious: what log10(TGI) value has been reported for CCCCCCCCOc1ccc(/C=N/Nc2cc(C)nc3ccc(Cl)cc23)cc1 ?
Output: 0.69

Task: I am curious: what log10(TGI) value has been reported for CCc1cccc(CC)c1NC(=S)NC(=O)c1ccc(Br)cc1 ?
Output: 1.73

Task: I am curious: what log10(TGI) value has been reported for C=C(CN1CCN(c2cccc(C(F)(F)F)c2)CC1)c1ccc(C(=O)Nc2ccccc2N)cc1 ?
Output: 0.11

Task: I am curious: what log10(TGI) value has been reported for CC1C=C(OC(=O)c2ccccc2)C(=O)C(n2cc(F)c(=O)n(C(=O)c3ccccc3)c2=O)O1 (configuration not stated) ?
Output: 1.85
